biological target: Tyrosyl-tRNA synthetase, putative (Trypanosoma cruzi (strain CL Brener)); experiment: Trypanosoma cruzi tyrosyl tRNA synthetase (TcYRS) _High Tyrosine SOP; type: functional; parameters: scale not given: in the data most compounds retested in dose-response had high values; settings: 30 µM
# Percent Effect values compiled below
Experimental Endpoint: Percent Effect (%)

{"Molecule": "Cn1ccc(C(=O)NC2CCC23CCN(Cc2cccnc2)CC3)c1 (stereo not drawn)", "Assay System": "Tyrosyl-tRNA synthetase, putative (Trypanosoma cruzi (strain CL Brener))", "Numeric Readout": -1.04}
{"Molecule": "Cc1cnn(Cc2cc(F)ccc2F)c1NC(=O)C1COCCO1 (stereo not drawn)", "Assay System": "Tyrosyl-tRNA synthetase, putative (Trypanosoma cruzi (strain CL Brener))", "Numeric Readout": 4.92}
{"Molecule": "Cn1c(CC2CCS(=O)(=O)C2)nnc1SCCOc1ccccc1F (stereo not drawn)", "Assay System": "Tyrosyl-tRNA synthetase, putative (Trypanosoma cruzi (strain CL Brener))", "Numeric Readout": -2.15}
{"Molecule": "COCc1cc(O)nc(C2CCCN(Cc3cc(OC)ccc3F)C2)n1 (stereo not drawn)", "Assay System": "Tyrosyl-tRNA synthetase, putative (Trypanosoma cruzi (strain CL Brener))", "Numeric Readout": -2.15}
{"Molecule": "N#Cc1ncn(CCC(=O)Nc2ccc(Cl)cc2F)n1", "Assay System": "Tyrosyl-tRNA synthetase, putative (Trypanosoma cruzi (strain CL Brener))", "Numeric Readout": 11.5}
{"Molecule": "Cc1ccc(CN2CCn3cc(CN(C)Cc4ccco4)nc3C2)o1", "Assay System": "Tyrosyl-tRNA synthetase, putative (Trypanosoma cruzi (strain CL Brener))", "Numeric Readout": 4.23}
{"Molecule": "CC(C)(C)C(=O)N1CCC(c2nc(O)cc(-c3ccccn3)n2)CC1", "Assay System": "Tyrosyl-tRNA synthetase, putative (Trypanosoma cruzi (strain CL Brener))", "Numeric Readout": 2.15}
{"Molecule": "CCn1c(C(=O)N2CCN(C(=O)COC)CC2)cc2ccccc21", "Assay System": "Tyrosyl-tRNA synthetase, putative (Trypanosoma cruzi (strain CL Brener))", "Numeric Readout": 7.77}
{"Molecule": "Cc1ccc(F)c(-n2nnc(C(=O)O)c2-c2ccncc2)c1", "Assay System": "Tyrosyl-tRNA synthetase, putative (Trypanosoma cruzi (strain CL Brener))", "Numeric Readout": 3.19}
{"Molecule": "Cc1ccc(NC(=O)N2CCC(NC(=O)c3ccc(C)o3)CC2)cc1", "Assay System": "Tyrosyl-tRNA synthetase, putative (Trypanosoma cruzi (strain CL Brener))", "Numeric Readout": 8.57}
{"Molecule": "CC(C)c1nn(C)c(N(C)C)c1CNCc1cccc(CN(C)C)c1", "Assay System": "Tyrosyl-tRNA synthetase, putative (Trypanosoma cruzi (strain CL Brener))", "Numeric Readout": 8.37}
{"Molecule": "CN(C)CCO[C@@H]1CC[C@H]2[C@H]1OCCN2C(=O)CCc1ccccc1", "Assay System": "Tyrosyl-tRNA synthetase, putative (Trypanosoma cruzi (strain CL Brener))", "Numeric Readout": 0}
{"Molecule": "Cn1ccc(C(=O)N2CCC(Cc3cnc4[nH]ccc4c3)CC2)n1", "Assay System": "Tyrosyl-tRNA synthetase, putative (Trypanosoma cruzi (strain CL Brener))", "Numeric Readout": 4.3}
{"Molecule": "CN(C)c1ncccc1CNS(=O)(=O)c1ccccc1F", "Assay System": "Tyrosyl-tRNA synthetase, putative (Trypanosoma cruzi (strain CL Brener))", "Numeric Readout": 4.9}
{"Molecule": "CC(C)NC(=O)N1CCC2(C1)CN(c1ccsc1)C(=O)CN2C (stereo not drawn)", "Assay System": "Tyrosyl-tRNA synthetase, putative (Trypanosoma cruzi (strain CL Brener))", "Numeric Readout": 6.84}
{"Molecule": "CC(C)(N)C(=O)N1CCCC1c1cncc(Oc2ccc(F)cc2)n1 (stereo not drawn)", "Assay System": "Tyrosyl-tRNA synthetase, putative (Trypanosoma cruzi (strain CL Brener))", "Numeric Readout": 6.35}
{"Molecule": "Cc1cccc(-c2noc(CN3CCCC(Cn4cncn4)C3)n2)c1 (stereo not drawn)", "Assay System": "Tyrosyl-tRNA synthetase, putative (Trypanosoma cruzi (strain CL Brener))", "Numeric Readout": 6.4}
{"Molecule": "O=C(c1ccco1)N1CCOCC2(CCN(C3CCOCC3)C2)C1 (stereo not drawn)", "Assay System": "Tyrosyl-tRNA synthetase, putative (Trypanosoma cruzi (strain CL Brener))", "Numeric Readout": 0}
{"Molecule": "CC(C(=O)NCc1ccnc(N2CCCC2)c1)n1cncn1 (stereo not drawn)", "Assay System": "Tyrosyl-tRNA synthetase, putative (Trypanosoma cruzi (strain CL Brener))", "Numeric Readout": 3.43}
{"Molecule": "COc1c(CNCc2ccnc(N3CCCC3)c2)c(C)nn1C", "Assay System": "Tyrosyl-tRNA synthetase, putative (Trypanosoma cruzi (strain CL Brener))", "Numeric Readout": 7.29}
{"Molecule": "c1cc(CN2Cc3nnn(CC4CC4)c3C(COCC3CC3)C2)co1 (stereo not drawn)", "Assay System": "Tyrosyl-tRNA synthetase, putative (Trypanosoma cruzi (strain CL Brener))", "Numeric Readout": 3.68}
{"Molecule": "O=C1COc2c(cccc2C(=O)N2CCCCC2Cn2cccn2)N1 (stereo not drawn)", "Assay System": "Tyrosyl-tRNA synthetase, putative (Trypanosoma cruzi (strain CL Brener))", "Numeric Readout": 6.67}
{"Molecule": "Cc1nc([C@@H]2C[C@@H]3CCN(C(=O)c4ccnnc4)C[C@H]3O2)sc1C", "Assay System": "Tyrosyl-tRNA synthetase, putative (Trypanosoma cruzi (strain CL Brener))", "Numeric Readout": 4.23}
